- Test system: octopamine receptor sites
- MEASUREMENT_DESCRIPTION: 3H-OA binding to ventral nerve cord / synaptosomal membrane protein
- Set-up: species or system American cockroach (Periplaneta americana)
- CONDITION_PARAMETERS: 1000 ng/ml; Table 2; solvent control 930 ± 89
METRIC: dpm 3H-OA/500 μg protein (dpm 3H-OA/500 μg protein)

>>> endpoint_value("Cc1ccc(C(C)C)cc1O")
2366
>>> endpoint_value("CC12CCC(CC1)C(C)(C)O2")
653
>>> endpoint_value("CC(C)=CCCC(C)CCO (stereo not shown)")
557
>>> endpoint_value("C=C(C)[C@H]1CC=C(C)CC1")
866

* * *

- System: octopamine receptor sites
- MEASUREMENT_DESCRIPTION: 3H-OA binding to ventral nerve cord / synaptosomal membrane protein
- Set-up: species or system American cockroach (Periplaneta americana)
- CONDITION_PARAMETERS: 1000 ng/ml; Table 3; solvent control 1915 ± 110
Mark yes (1) for reported cpm 3H-OA/500 μg protein of 800 cpm 3H-OA/500 μg protein or greater; mark no (0) for anything smaller.

>>> assigned_class("C/C=C/c1ccc(OC)cc1 [Trans-Anethole]")
"yes (1)"
>>> assigned_class("CC(=O)OCc1ccc2c(c1)OCO2 [Piperonyl acetate]")
"no (0)"
>>> assigned_class("COc1cc(C=O)ccc1O")
"no (0)"
>>> assigned_class("OCc1ccc2c(c1)OCO2")
"yes (1)"

* * *

- Test system: octopamine receptor sites
- MEASUREMENT_DESCRIPTION: 3H-OA binding to ventral nerve cord / synaptosomal membrane protein
- Set-up: species or system American cockroach (Periplaneta americana)
- CONDITION_PARAMETERS: based on the binding data of Tables 1-3
METRIC: classification with respect to octopamine receptor sites (OAR)

>>> endpoint_value("Cc1ccc(C(C)C)cc1")
"moderate OAR antagonists"
>>> endpoint_value("C/C=C/c1ccc(OC)cc1 [Trans-Anethole]")
"moderate OAR antagonists"
>>> endpoint_value("CC1=CCC(C(C)(C)O)CC1 (stereo not drawn)")
"moderate OAR antagonists"

* * *

Property: Mortality; scope: individual molecules
- Tested on: American cockroach
- MEASUREMENT_DESCRIPTION: Lethal effect of injected test chemicals
- Assay type: in vivo
- CONDITION_PARAMETERS: 500 μg/roach injected into thoracic and abdominal segments; 24 hr.; dead/10
- Protocol: Further studies were conducted to determine the LD 50 of purified naturally occurring plant essential oils and/or their constituents. […] Ten roaches per dose were used. Another group of ten roaches received the same volume of vehicle only (0.5 μl) and used as a control group. Mortality was recorded 24, 48, and 72 hours after exposure.
METRIC: Mortality

>>> endpoint_value("C=CCc1ccc(O)c(OC)c1 [eugenol]")
"6/10"
>>> endpoint_value("C=C(C)[C@H]1CC=C(C)CC1 [d-limonene]")
"0/10"
>>> endpoint_value("OCCc1ccccc1 [phenethyl alcohol]")
"0/10"
>>> endpoint_value("CC12CCC(CC1)C(C)(C)O2 [Eucaluptol, Eucalyptol]")
"0/10"
>>> endpoint_value("CC(C)=CCCC(C)CC=O (stereo not drawn) [citronellal]")
"0/10"
>>> endpoint_value("CC(C)=C1CC[C@@H](C)CC1=O [pulegone]")
"6/10"
